Below, each of the compounds is paired with its reported INHIBITION value.
System: Plasmodium berghei
assay-overview: Screen against P. berghei liver stage (PbLuc), transformed with Luciferase, at 10uM
Assay type: functional, HepG2
measurement-setup: tested at 10 uM
Out of some 69,000 compounds screened, about 8,600 (12%) showed an effect of 50% or more. Shown is part of a subset that was picked to be rich in strong results.
# output: bare number, implied unit %

// known answers, use as guide
O=C(CCc1ccncc1)N1CCCC(N2CCNC2=O)C1 (stereo unspecified)
37.9
Cc1nc(CN2CCCC(NCCCc3ccccc3)C2)no1 (stereo unspecified)
-7.31
CCOCc1nc2c(c(NC(COC)c3ccccn3)n1)CCNCC2 (stereo unspecified)
8.31

The compound `Cn1cc(NC(=O)c2cc3c(s2)CCCC3)cn1` showed INHIBITION equal to -179

The compound `CN1CC(=O)N(C2CCNCC2)Cc2c(NCC(C)(C)C)ncnc21` showed INHIBITION equal to 47.4

The compound `O=C(NCCS(=O)(=O)N1CCN(c2ncccn2)CC1)C1CCCC1` showed INHIBITION equal to -33.5

====

Tested on: Plasmodium berghei
assay-overview: Screen against P. berghei liver stage (PbLuc), transformed with Luciferase, at 10uM
Assay type: functional, HepG2
measurement-setup: tested at 10 uM
Out of some 69,000 compounds screened, about 8,600 (12%) showed an effect of 50% or more. Only a selection was taken, and strong results are over-represented in it overall.
Given measured INHIBITION, output true if it is greater than or equal to 20% and false if not.

Completed entries (count: 3):
CC(=O)N[C@H]1CCO[C@@H](c2cccc(NC(=O)Cc3ccccc3)c2)C1
false
Cc1nn(C)c(C)c1CC(=O)N1CCCC(n2ccnc2)C1 (stereo unspecified)
true
Cc1ccsc1CNC(=O)NC(C)c1ccc2c(c1)CCC(=O)N2 (stereo unspecified)
false

Test whether the compound Cc1nn(C)c(C)c1CC(=O)N1CCCC(CNS(C)(=O)=O)C1 (stereo unspecified) records INHIBITION of 20% or higher.
true

Test whether the compound Cc1cnn(C2CCCN(C(=O)CCc3ccncc3)C2)c1 (stereo unspecified) records INHIBITION of 20% or higher.
true

Test whether the compound Cc1nn(C)c(C)c1CC(=O)N1CCCC(n2ccnc2C)C1 (stereo unspecified) records INHIBITION of 20% or higher.
true

====

System: Plasmodium berghei
assay-overview: Screen against P. berghei liver stage (PbLuc), transformed with Luciferase, at 10uM
Assay type: functional, HepG2
measurement-setup: tested at 10 uM
The campaign covered roughly 69,000 compounds. About 8,600 (12%) showed an effect of 50% or more. This excerpt belongs to a sample that is enriched for strong results.
Below, each of the molecules is paired with its reported INHIBITION value.
# output: bare number, implied unit %

The molecule `CNc1ccnc(N2CC[C@@](O)(C3CCOCC3)[C@H](C)C2)n1` showed INHIBITION equal to 59.3

The molecule `CCN1CCn2c(C)cnc2C12CCN(C(=O)CC(C)C)CC2` showed INHIBITION equal to -0.182

The molecule `COCCCS(=O)(=O)N1CCN(c2cccc(O)c2)CC1` showed INHIBITION equal to 14.6

The molecule `O=C(Nc1cc(C(F)(F)F)c[nH]c1=O)C1CCNCC1` showed INHIBITION equal to 11.9

====

Below, each of the compounds is paired with its reported INHIBITION value.
Tested on: Plasmodium berghei
assay-overview: Screen against P. berghei liver stage (PbLuc), transformed with Luciferase, at 10uM
Format: functional, HepG2
measurement-setup: tested at 10 uM
The campaign covered roughly 69,000 compounds. About 8,600 (12%) showed an effect of 50% or more. The sample holds strong results, similar compounds and a random draw of the others, so the mix is not that of the screen.
# output: bare number, implied unit %

// known answers, use as guide
COc1cccc(CC(=O)N2CCCC(c3nncn3C)C2)c1 (stereo unspecified)
-26.6
Cc1ccc(CN(Cc2ccncc2)C2CC(C)(C)NC(C)(C)C2)o1
7.05
Cc1cccc(C)c1OCC(C)Nc1nc(N)nc2c1CCNC2 (stereo unspecified)
42.6
Nc1nc2c(c(NCC(c3cccnc3)N3CCOCC3)n1)CCNC2 (stereo unspecified)
23.1
Cc1cccnc1CC(C)Nc1nc(N)nc2c1CCNC2 (stereo unspecified)
65.7

Now take the following compound into account.
The compound `Cc1ccc(CN(Cc2[nH]cnc2C)C2CC(C)(C)NC(C)(C)C2)o1` showed INHIBITION equal to 38.2

====

Test system: Plasmodium berghei
assay-overview: Screen against P. berghei liver stage (PbLuc), transformed with Luciferase, at 10uM
Format: functional, HepG2
measurement-setup: tested at 10 uM
Out of some 69,000 compounds screened, about 8,600 (12%) showed an effect of 50% or more. The sample as a whole holds a higher share of strong results than the screen did.
experimental-endpoint: INHIBITION (%)
# output: bare number, implied unit %

N#CC1CCN(C(=O)NCCc2ccc(Cl)s2)CC1
-7.31
CC(C)c1nnc(CN2CCN(CC(O)c3ccccc3)CC2)o1 (stereo not given)
36.1
CN(CC(=O)N1CCCC1c1cnn(C)c1)Cc1ccccc1 (stereo not given)
-25.8

The molecule `NC(=O)C1CCN(CCc2ccc(NCc3cccnc3)cc2)CC1` showed INHIBITION equal to 25.3

The molecule `CC1(C)CCN(Cc2ccccc2-c2nc(C(C)(C)C)cc(=O)[nH]2)C1` showed INHIBITION equal to 57.3

The molecule Cc1nc(CN(C)C(=O)C2CCC(=O)N(CCN(C)C)C2)cs1 (stereo not given) showed INHIBITION equal to 20.8

====

Below, each of the compounds is paired with its reported INHIBITION value.
System: Plasmodium berghei
assay-overview: Screen against P. berghei liver stage (PbLuc), transformed with Luciferase, at 10uM
Format: functional, HepG2
measurement-setup: tested at 10 uM
Among all 69,000 compounds or so, about 8,600 (12%) showed an effect of 50% or more. Shown is part of a subset that was picked to be rich in strong results.
Provide the measurement as a number trailed by its unit.

// known answers, use as guide
CCc1nn(C)c2[nH]nc(NC(=O)c3cccnc3NC(C)C)c12
36.3%
CNC(=O)C1(N2CCC[C@H]2C(=O)NC2CCOCC2)CCOCC1
15.4%
O=C(NCC1CC1)[C@@H]1CCO[C@@H]2CCN(Cc3ccco3)C[C@H]21
-22.8%
CN(C)c1ncccc1CNC(=O)NCC(c1cccs1)N(C)C (stereo unspecified)
23.2%
O=C(NC1CC1)[C@@H]1CCO[C@@H]2CCN(Cc3ccco3)C[C@H]21
18.3%
CC(=O)c1cc2ncc(C(=O)NC3CCCCC3)cc2[nH]1
-25.1%
Cc1nc(Nc2ncc(C)s2)cc(C2CCCN2)n1 (stereo unspecified)
67.15%
C1CCc2nnc(CNc3nc(C4CC4)nc4c3CCNCC4)n2CC1
3.06%
CN(C)C(=O)N1CCN(c2ccc3ccc(C(=O)NC4CC4)cn23)CC1
-14.7%
O=C(NC1CC1)[C@@H]1CCO[C@@H]2CCN(CC3CCC3)C[C@H]21
61.1%

Now take the following compound into account.
The compound `CN1C[C@@H](O)[C@]2(CCN(C(=O)c3ccccc3)C2)S1(=O)=O` showed INHIBITION equal to 8.61%

====

Below, each of the compounds is paired with its reported INHIBITION value.
System: Plasmodium berghei
assay-overview: Screen against P. berghei liver stage (PbLuc), transformed with Luciferase, at 10uM
Assay type: functional, HepG2
measurement-setup: tested at 10 uM
Screen size: about 69,000 compounds; about 8,600 (12%) showed an effect of 50% or more. The entries come from a sample that favours strong results as a whole.
# output: bare number, implied unit %

CCOc1ccc(Cl)c(C(=O)NCCC(=O)Nc2ccncc2)n1
-0.44
COCC(=O)N1CC(C(=O)NCC2CC2)C2(CCOCC2)C1 (stereo unspecified)
15.8
Cc1c[nH]nc1C1CCN(C(=O)C2CCOCC2)C1 (stereo unspecified)
3.48
NC(=O)NC(=O)CCSCc1cc(F)cc2cccnc12
-28.9
NC(=O)NC(=O)CCSCc1coc(-c2ccc(F)cc2)n1
67.8

Now take the following compound into account.
The compound `Cc1ccc(-c2nc(CSCCC(=O)NC(N)=O)co2)c(C)c1` showed INHIBITION equal to 87.4

====

System: Plasmodium berghei
assay-overview: Screen against P. berghei liver stage (PbLuc), transformed with Luciferase, at 10uM
Type: functional, HepG2
measurement-setup: tested at 10 uM
Hit rate of the full screen: of about 69,000 compounds, about 8,600 (12%) showed an effect of 50% or more. This excerpt belongs to a sample that is enriched for strong results.
Below, each of the compounds is paired with its reported INHIBITION value.
# output: bare number, implied unit %

// known answers, use as guide
NC(=O)NC(=O)CN1CCN(CC2CC2)c2ccccc21
35.3
Cc1nc(CN(C)C2CCN(CCc3cccs3)C2)no1 (stereo unspecified)
39.2
CN1CCC(N2CCC(CN(Cc3ccncc3)C3CCC3)CC2)CC1
53.8

The compound `Cc1ccc(-c2cccc(N3CCC(NC4CCOCC4)CC3)c2)cc1` showed INHIBITION equal to 39.3

The compound `O=C(NCc1ccco1)[C@H]1CC[C@@H]2[C@@H](CCN2Cc2nccs2)O1` showed INHIBITION equal to -30.1

The compound `CC(C)c1nnc2n1CCN(C(=O)c1ccc3c(c1)CCC3)C2` showed INHIBITION equal to -12.2

The compound `COCCC(=O)N1CCN(CC2CC2)c2ccccc21` showed INHIBITION equal to 14.9

The compound `NC(=O)NC(=O)CCN1CCN(CC2CC2)c2ccccc21` showed INHIBITION equal to 62.4
